system: CL-11 (Colorectal Carcinoma); test: Bliss excess, mean over the matrix (fraction); higher = more synergy
Entries and their measured Bliss excess follow.
Please give the numeric answer without any surrounding text.

Data request: Provide the documented Bliss excess with CL-11 (Colorectal Carcinoma) as the system for CN(C)CCCOc1ccc(-c2ccc3ncc4c(c3c2)n(C2CCOCC2)c(=O)n4C)cn1 [AZD0156] + C[C@@H]1COCCN1C2=NC(=NC(=C2)C3(CC3)[S@](=N)(=O)C)C4=C5C=CNC5=NC=C4 [AZD6738] (first compound max 1 µM, 7x7, partner max 10 µM)
Data returned: -0.0265

Data request: Provide the documented Bliss excess with CL-11 (Colorectal Carcinoma) as the system for NC1(C(=O)N[C@@H](CCO)c2ccc(Cl)cc2)CCN(c2ncnc3[nH]ccc23)CC1 [Capivasertib] + CC(=O)c1c(C)c2cnc(Nc3ccc(N4CCNCC4)cn3)nc2n(C2CCCC2)c1=O [Palbociclib] (first compound max 10 µM, 7x7, partner max 10 µM)
Data returned: -0.0222

Data request: Provide the documented Bliss excess with CL-11 (Colorectal Carcinoma) as the system for CN(CCO)CC[C@H](CSc1ccccc1)Nc1ccc(S(=O)(=O)NC(=O)c2ccc(N3CCC([C@@H](O)c4ccccc4-c4ccc(Cl)cc4)CC3)cc2)cc1S(=O)(=O)C(F)(F)F [AZD4320] + C1CN(CCC1(C(=O)N[C@@H](CCO)C2=CC=C(C=C2)Cl)N)C3=NC=NC4=C3C=CN4 [Capivasertib] (first compound max 1 µM, 7x7, partner max 3 µM)
Data returned: -0.0496

Data request: Provide the documented Bliss excess with CL-11 (Colorectal Carcinoma) as the system for CC(=O)c1c(C)c2cnc(Nc3ccc(N4CCNCC4)cn3)nc2n(C2CCCC2)c1=O [Palbociclib] + CN(CC[C@H](CSC1=CC=CC=C1)NC2=C(C=C(C=C2)S(=O)(=O)NC(=O)C3=CC=C(C=C3)N4CCC(CC4)[C@H](C5=CC=CC=C5C6=CC=C(C=C6)Cl)O)S(=O)(=O)C(F)(F)F)CCO [AZD4320] (first compound max 10 µM, 7x7, partner max 1 µM)
Data returned: 0.0021

* * *

test system: MOLP-8 (Plasma Cell Myeloma); test: Bliss excess, mean over the matrix (fraction); higher = more synergy
I would appreciate it if you labelled entries Condition met when Bliss excess is -0.03 or higher, otherwise Condition not met.

Some entries whose results are on file:
# compound, label_value
rows = [
    ("COc1cccc(OCCCN)c1-c1cc(Nc2cnc(C#N)cn2)n[nH]1 [Prexasertib] + O=C(c1cc(Cc2n[nH]c(=O)c3ccccc23)ccc1F)N1CCN(C(=O)C2CC2)CC1 [Olaparib] (first compound max 1 µM, 7x7, partner max 10 µM)", "Condition not met"),
    ("CC1(C)CCC(CN2CCN(c3ccc(C(=O)NS(=O)(=O)c4ccc(NCC5CCOCC5)c([N+](=O)[O-])c4)c(Oc4cnc5[nH]ccc5c4)c3)CC2)=C(c2ccc(Cl)cc2)C1 [Venetoclax] + Cc1cc2ncnn2cc1Nc1ncc2c(n1)n(C1CCOCC1)c(=O)n2C [AZD7648] (first compound max 1 µM, 7x7, partner max 10 µM)", "Condition met"),
    ("CCc1c2c(nc3ccc(O)cc13)-c1cc3c(c(=O)n1C2)COC(=O)[C@]3(O)CC [SN-38] + CN(C)CCCOc1ccc(-c2ccc3ncc4c(c3c2)n(C2CCOCC2)c(=O)n4C)cn1 [AZD0156] (first compound max 0.3 µM, 7x7, partner max 1 µM)", "Condition not met"),
    ("CCN(CCO)CCCOc1ccc2c(Nc3cc(CC(=O)Nc4cccc(F)c4)[nH]n3)ncnc2c1 [AZD2811] + O=C(c1cc(Cc2n[nH]c(=O)c3ccccc23)ccc1F)N1CCN(C(=O)C2CC2)CC1 [Olaparib] (first compound max 1 µM, 7x7, partner max 10 µM)", "Condition met"),
    ("CN(CCO)CC[C@H](CSc1ccccc1)Nc1ccc(S(=O)(=O)NC(=O)c2ccc(N3CCC([C@@H](O)c4ccccc4-c4ccc(Cl)cc4)CC3)cc2)cc1S(=O)(=O)C(F)(F)F [AZD4320] + C1CN(CCC1(C(=O)N[C@@H](CCO)C2=CC=C(C=C2)Cl)N)C3=NC=NC4=C3C=CN4 [Capivasertib] (first compound max 1 µM, 7x7, partner max 3 µM)", "Condition met"),
    ("Cc1cc2ncnn2cc1Nc1ncc2c(n1)n(C1CCOCC1)c(=O)n2C [AZD7648] + O=C(c1cc(Cc2n[nH]c(=O)c3ccccc23)ccc1F)N1CCN(C(=O)C2CC2)CC1 [Olaparib] (first compound max 10 µM, 7x7, partner max 10 µM)", "Condition met"),
    ("NC1(C(=O)N[C@@H](CCO)c2ccc(Cl)cc2)CCN(c2ncnc3[nH]ccc23)CC1 [Capivasertib] + C[C@@H]1COCCN1C2=NC(=NC(=C2)C3(CC3)[S@](=N)(=O)C)C4=C5C=CNC5=NC=C4 [AZD6738] (first compound max 10 µM, 7x7, partner max 10 µM)", "Condition met"),
    ("CN(CCO)CC[C@H](CSc1ccccc1)Nc1ccc(S(=O)(=O)NC(=O)c2ccc(N3CCC([C@@H](O)c4ccccc4-c4ccc(Cl)cc4)CC3)cc2)cc1S(=O)(=O)C(F)(F)F [AZD4320] + CCN(CCO)CCCOc1ccc2c(Nc3cc(CC(=O)Nc4cccc(F)c4)[nH]n3)ncnc2c1 [AZD2811] (first compound max 1 µM, 7x7, partner max 1 µM)", "Condition met"),
    ("COc1cccc(OCCCN)c1-c1cc(Nc2cnc(C#N)cn2)n[nH]1 [Prexasertib] + C[C@@H]1COCCN1C2=NC(=NC(=C2)C3(CC3)[S@](=N)(=O)C)C4=C5C=CNC5=NC=C4 [AZD6738] (first compound max 1 µM, 7x7, partner max 10 µM)", "Condition not met"),
    ("Cn1cnc2c(F)c(Nc3ccc(Br)cc3Cl)c(C(=O)NOCCO)cc21 [Selumetinib] + C[C@@H]1COCCN1C2=NC(=NC(=C2)C3(CC3)[S@](=N)(=O)C)C4=C5C=CNC5=NC=C4 [AZD6738] (first compound max 10 µM, 7x7, partner max 10 µM)", "Condition met"),
]

Data request: Assess whether reported Bliss excess for CCN(CCO)CCCOc1ccc2c(Nc3cc(CC(=O)Nc4cccc(F)c4)[nH]n3)ncnc2c1 [AZD2811] + C[C@@H]1COCCN1C2=NC(=NC(=C2)C3(CC3)[S@](=N)(=O)C)C4=C5C=CNC5=NC=C4 [AZD6738] (first compound max 1 µM, 7x7, partner max 10 µM) sits at -0.03 or higher.
Data returned: Condition met

Data request: Assess whether reported Bliss excess for Cc1c2c(nn1C)CSCc1cc(n(C)n1)CSc1cc(c3ccccc3c1)OCCCc1c(C(=O)O)n(C)c3c-2c(Cl)ccc13 [AZD5991] + C[C@@H]1COCCN1C2=NC(=NC(=C2)C3(CC3)[S@](=N)(=O)C)C4=C5C=CNC5=NC=C4 [AZD6738] (first compound max 1 µM, 7x7, partner max 10 µM) sits at -0.03 or higher.
Data returned: Condition met

Data request: Assess whether reported Bliss excess for CN(CCO)CC[C@H](CSc1ccccc1)Nc1ccc(S(=O)(=O)NC(=O)c2ccc(N3CCC([C@@H](O)c4ccccc4-c4ccc(Cl)cc4)CC3)cc2)cc1S(=O)(=O)C(F)(F)F [AZD4320] + Cc1cc2ncnn2cc1Nc1ncc2c(n1)n(C1CCOCC1)c(=O)n2C [AZD7648] (first compound max 1 µM, 7x7, partner max 10 µM) sits at -0.03 or higher.
Data returned: Condition met

* * *

Entries and their measured combination Emax follow.
test system: SCC-4 (Oral Cavity Carcinoma); assay: combination Emax (second highest fraction inhibited in the dose matrix, 72 h); higher = more inhibition; extreme values may be limits of the assay

Data request: Sample CN(CCO)CC[C@H](CSc1ccccc1)Nc1ccc(S(=O)(=O)NC(=O)c2ccc(N3CCC([C@@H](O)c4ccccc4-c4ccc(Cl)cc4)CC3)cc2)cc1S(=O)(=O)C(F)(F)F [AZD4320] + C[C@@H]1COCCN1C2=NC(=NC(=C2)C3(CC3)[S@](=N)(=O)C)C4=C5C=CNC5=NC=C4 [AZD6738] (first compound max 1 µM, 7x7, partner max 10 µM) — what was its combination Emax?
Data returned: 0.872

Data request: Sample Cc1c2c(nn1C)CSCc1cc(n(C)n1)CSc1cc(c3ccccc3c1)OCCCc1c(C(=O)O)n(C)c3c-2c(Cl)ccc13 [AZD5991] + Cn1cnc2c(F)c(Nc3ccc(Br)cc3Cl)c(C(=O)NOCCO)cc21 [Selumetinib] (first compound max 1 µM, 7x7, partner max 3 µM) — what was its combination Emax?
Data returned: 0.839

* * *

tested on: SNU-423 (Hepatocellular Carcinoma); experiment: Bliss excess, mean over the matrix (fraction); higher = more synergy
I would appreciate it if you labelled entries Yes when Bliss excess is -0.03 or higher, otherwise No.

# compound, label_value
measured = [
    ("C[C@@H](Oc1cc(-c2cnn(C3CCNCC3)c2)cnc1N)c1c(Cl)ccc(F)c1Cl [Crizotinib] + Cn1cnc2c(F)c(Nc3ccc(Br)cc3Cl)c(C(=O)NOCCO)cc21 [Selumetinib] (first compound max 10 µM, 7x7, partner max 10 µM)", "No"),
    ("CC(=O)c1c(C)c2cnc(Nc3ccc(N4CCNCC4)cn3)nc2n(C2CCCC2)c1=O [Palbociclib] + Cn1cnc2c(F)c(Nc3ccc(Br)cc3Cl)c(C(=O)NOCCO)cc21 [Selumetinib] (first compound max 10 µM, 7x7, partner max 10 µM)", "Yes"),
    ("CC(=O)c1c(C)c2cnc(Nc3ccc(N4CCNCC4)cn3)nc2n(C2CCCC2)c1=O [Palbociclib] + Cc1c2c(nn1C)CSCc1cc(n(C)n1)CSc1cc(c3ccccc3c1)OCCCc1c(C(=O)O)n(C)c3c-2c(Cl)ccc13 [AZD5991] (first compound max 10 µM, 7x7, partner max 1 µM)", "No"),
    ("Cc1cc2ncnn2cc1Nc1ncc2c(n1)n(C1CCOCC1)c(=O)n2C [AZD7648] + CCN(CCO)CCCOc1ccc2c(Nc3cc(CC(=O)Nc4cccc(F)c4)[nH]n3)ncnc2c1 [AZD2811] (first compound max 10 µM, 7x7, partner max 1 µM)", "No"),
]

Next up:
Data request: Assess whether reported Bliss excess for CC1(C)CCC(CN2CCN(c3ccc(C(=O)NS(=O)(=O)c4ccc(NCC5CCOCC5)c([N+](=O)[O-])c4)c(Oc4cnc5[nH]ccc5c4)c3)CC2)=C(c2ccc(Cl)cc2)C1 [Venetoclax] + C1CN(CCC1(C(=O)N[C@@H](CCO)C2=CC=C(C=C2)Cl)N)C3=NC=NC4=C3C=CN4 [Capivasertib] (first compound max 1 µM, 7x7, partner max 3 µM) sits at -0.03 or higher.
Data returned: No
